Reference for the values: patent US7241791B2

- TARGET: UniProt:P03372
- Sequence (P03372 whole entry): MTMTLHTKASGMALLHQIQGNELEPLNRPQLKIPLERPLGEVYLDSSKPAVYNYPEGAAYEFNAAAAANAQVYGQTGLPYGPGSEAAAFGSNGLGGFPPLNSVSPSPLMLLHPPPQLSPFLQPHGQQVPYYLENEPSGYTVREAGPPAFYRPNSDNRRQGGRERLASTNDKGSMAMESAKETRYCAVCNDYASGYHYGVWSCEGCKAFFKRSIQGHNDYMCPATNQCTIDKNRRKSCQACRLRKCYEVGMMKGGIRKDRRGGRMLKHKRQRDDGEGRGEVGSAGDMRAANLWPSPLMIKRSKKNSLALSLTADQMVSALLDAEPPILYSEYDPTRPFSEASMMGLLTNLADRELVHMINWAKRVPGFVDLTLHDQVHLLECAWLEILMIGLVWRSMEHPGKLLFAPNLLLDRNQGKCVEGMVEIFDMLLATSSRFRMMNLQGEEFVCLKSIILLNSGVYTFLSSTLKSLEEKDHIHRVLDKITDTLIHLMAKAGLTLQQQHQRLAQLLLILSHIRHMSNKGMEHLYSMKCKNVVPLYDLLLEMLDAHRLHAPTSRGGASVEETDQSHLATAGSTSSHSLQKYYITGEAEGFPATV
- METHOD: NF-κB luciferase reporter (ER/NF-KB-luc) in Ad5-wt-hERα infected HAECT-1 cells
- CONDITION NOTES: ER/NF-KB-luc IC50, Ad5-wt-ER infected HAECT-1 cells, IL-1β
The entries below come with measured IC50 values attached.
Express your answer in nM, writing the number without its unit.

Reference set, count: 2
# SMILES STR, UNIT TAG, IC50
rows = [
    ("Oc1ccc(-c2nn(C3CCCC3)c3c(-c4cccs4)cccc23)cc1", "nM", 11),
    ("Oc1ccc(-c2nn(Cc3ccccc3)c3c(C(F)(F)F)cccc23)c(O)c1", "nM", 310),
]

Can you share its IC50? I mean this compound: CCCn1nc(-c2ccc(O)cc2)c2cccc(F)c21
58

Can you share its IC50? I mean this compound: CC(C)n1nc2c(F)cccc2c1-c1ccc(O)cc1O
435

Can you share its IC50? I mean this compound: CC(C)n1nc(-c2ccc(O)cc2O)c2cccc(F)c21
347

Can you share its IC50? I mean this compound: Oc1ccc(-c2c3cccc(Cl)c3nn2C2CCCC2)cc1
17

Can you share its IC50? I mean this compound: Oc1ccc(-c2nn(Cc3ccccc3)c3c(Cl)cccc23)c(O)c1
319
